Molecular target: NPFFR2 (Homo sapiens, UniProt Q9Y5X5)
Construct: purchased Promega (in-house HiBiT-GPCR construct library, NanoBRET)
Sequence (Q9Y5X5 whole entry): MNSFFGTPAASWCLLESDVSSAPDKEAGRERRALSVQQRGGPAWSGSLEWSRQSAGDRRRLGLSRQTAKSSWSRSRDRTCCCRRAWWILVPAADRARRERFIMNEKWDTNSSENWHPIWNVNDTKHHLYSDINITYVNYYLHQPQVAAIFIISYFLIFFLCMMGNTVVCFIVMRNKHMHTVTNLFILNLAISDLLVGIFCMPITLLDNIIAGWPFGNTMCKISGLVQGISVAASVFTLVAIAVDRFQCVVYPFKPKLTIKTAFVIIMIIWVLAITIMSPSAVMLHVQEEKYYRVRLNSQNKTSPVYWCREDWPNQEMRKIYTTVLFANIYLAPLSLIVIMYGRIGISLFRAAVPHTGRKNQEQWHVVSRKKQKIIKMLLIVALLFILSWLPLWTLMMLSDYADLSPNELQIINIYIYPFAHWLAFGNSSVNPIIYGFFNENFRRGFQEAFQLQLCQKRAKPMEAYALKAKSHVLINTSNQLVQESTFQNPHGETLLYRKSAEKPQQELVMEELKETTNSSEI
Test: NanoBRET screen HiBiT-NPFFR2 in HEK293
Format: binding
Conditions: NPFFR2; tracer 0.1μM
# key: entry, value: NanoBRET Fold Response

Prompt: Note NanoBRET Fold Response for the compound shown: O=C(CCc1ccc2n1[B-](F)(F)[N+]1=C(c3ccc[nH]3)C=CC1=C2)NCc1ccc(C(=O)NCCOCCC(=O)N[C@@H]2CC[C@@]3(O)[C@H]4Cc5ccc(O)c6c5[C@@]3(CCN4CC3CC3)[C@H]2O6)cc1 [Naltrexone-3-NB590]
Completion: 1.01

Prompt: Indicate the recorded NanoBRET Fold Response value for this compound: "O=C(CCc1ccc2n1[B-](F)(F)[N+]1=C(c3ccc[nH]3)C=CC1=C2)NCCOCCOCCNC(=O)OCCOCCN1CCN(C2=Nc3ccccc3Sc3ccccc32)CC1"
Completion: 0.99

###

Target: FZD4 (Homo sapiens, UniProt Q9ULV1)
Construct: purchased Promega (in-house HiBiT-GPCR construct library, NanoBRET)
Sequence (Q9ULV1 37-537): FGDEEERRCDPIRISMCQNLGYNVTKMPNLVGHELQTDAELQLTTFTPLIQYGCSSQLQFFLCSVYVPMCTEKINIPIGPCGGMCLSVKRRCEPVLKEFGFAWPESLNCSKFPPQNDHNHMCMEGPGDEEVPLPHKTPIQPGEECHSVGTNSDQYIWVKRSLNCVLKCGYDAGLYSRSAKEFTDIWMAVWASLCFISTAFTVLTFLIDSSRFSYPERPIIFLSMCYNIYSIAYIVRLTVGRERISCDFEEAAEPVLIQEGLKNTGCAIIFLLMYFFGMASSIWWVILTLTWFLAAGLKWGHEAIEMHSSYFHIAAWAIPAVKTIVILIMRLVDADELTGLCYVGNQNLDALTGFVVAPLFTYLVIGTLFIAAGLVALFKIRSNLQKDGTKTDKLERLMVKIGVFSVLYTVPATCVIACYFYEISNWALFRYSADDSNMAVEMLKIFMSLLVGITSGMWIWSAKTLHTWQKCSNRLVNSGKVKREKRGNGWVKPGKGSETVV
Experiment: NanoBRET screen HiBiT-FZD4 in HEK293
Assay type: binding
Conditions: FZD4; tracer 0.1μM
Reported NanoBRET Fold Response values follow for various compounds
I only need the number, thanks.

chemical_string	NanoBRET Fold Response
CCCn1c(=O)c2[nH]c(-c3ccc(OCC(=O)NCCNC(=O)CCOCCNC(=O)c4ccc(CNC(=O)CCc5ccc6n5[B-](F)(F)[N+]5=C(c7ccc[nH]7)C=CC5=C6)cc4)cc3)nc2n(CCC)c1=O	1.15
CC(C)N(CC[C@H](c1ccccc1)c1cc(CCNC(=O)CCOCCOCCOCCOCCNC(=O)CCc2ccc3n2[B-](F)(F)[N+]2=C(c4ccc[nH]4)C=CC2=C3)ccc1O)C(C)C	0.95
O=C(CCc1ccc2n1[B-](F)(F)[N+]1=C(c3ccc[nH]3)C=CC1=C2)NCCOCCOCCNC(=O)OCCOCCN1CCN(C2=Nc3ccccc3Sc3ccccc32)CC1	0.96

// below: NanoBRET Fold Response requested for another compound
Prompt: State, in one line, measured NanoBRET Fold Response of "Cc1cc2c(s1)Nc1ccccc1N=C2N1CCN(CCCNC(=O)CCOCCOCCOCCOCCNC(=O)CCc2ccc3n2[B-](F)(F)[N+]2=C(c4ccc[nH]4)C=CC2=C3)CC1"
Completion: 1.00

###

Target: FPR2 (Homo sapiens, UniProt P25090)
Construct: purchased Promega (in-house HiBiT-GPCR construct library, NanoBRET)
Sequence (P25090 whole entry): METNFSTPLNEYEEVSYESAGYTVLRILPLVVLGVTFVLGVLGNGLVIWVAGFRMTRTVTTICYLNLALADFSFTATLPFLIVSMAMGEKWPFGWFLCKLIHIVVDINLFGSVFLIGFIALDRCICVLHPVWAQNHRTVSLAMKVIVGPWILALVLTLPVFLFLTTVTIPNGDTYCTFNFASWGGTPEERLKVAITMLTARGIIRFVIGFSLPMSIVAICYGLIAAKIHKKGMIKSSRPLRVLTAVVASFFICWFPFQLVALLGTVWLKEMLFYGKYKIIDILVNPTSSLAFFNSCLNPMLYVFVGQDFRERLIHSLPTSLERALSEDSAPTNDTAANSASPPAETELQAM
Assay: NanoBRET screen HiBiT-FPR2 in HEK293
Assay type: binding
Details: FPR2; tracer 0.1μM
// reported NanoBRET Fold Response for each item listed
Please reply with the number alone, leaving off any unit.

molecule	NanoBRET Fold Response
O=C(CCOCCOCCOCCOCCNC(=O)CCc1ccc2n1[B-](F)(F)[N+]1=C(c3ccc[nH]3)C=CC1=C2)NCCCN1CCN(C2=Nc3ccccc3Oc3ccc(Cl)cc32)CC1	0.81
Cc1cc2c(s1)Nc1ccccc1N=C2N1CCN(CCCNC(=O)CCOCCOCCOCCOCCNC(=O)CCc2ccc3n2[B-](F)(F)[N+]2=C(c4ccc[nH]4)C=CC2=C3)CC1	0.70

Prompt: Read the entry Cc1nc2n(c(=O)c1CCN1CCC(c3noc4cc(F)ccc34)CC1)CCCC2OC(=O)NCCOCCOCCOCCOCCNC(=O)CCc1ccc2n1[B-](F)(F)[N+]1=C(c3ccc[nH]3)C=CC1=C2 (stereo not drawn) and write its reported NanoBRET Fold Response.
Completion: 0.94

###

Target: SSTR5 (Homo sapiens, UniProt P35346)
Construct: purchased Promega (in-house HiBiT-GPCR construct library, NanoBRET)
Sequence (P35346 whole entry): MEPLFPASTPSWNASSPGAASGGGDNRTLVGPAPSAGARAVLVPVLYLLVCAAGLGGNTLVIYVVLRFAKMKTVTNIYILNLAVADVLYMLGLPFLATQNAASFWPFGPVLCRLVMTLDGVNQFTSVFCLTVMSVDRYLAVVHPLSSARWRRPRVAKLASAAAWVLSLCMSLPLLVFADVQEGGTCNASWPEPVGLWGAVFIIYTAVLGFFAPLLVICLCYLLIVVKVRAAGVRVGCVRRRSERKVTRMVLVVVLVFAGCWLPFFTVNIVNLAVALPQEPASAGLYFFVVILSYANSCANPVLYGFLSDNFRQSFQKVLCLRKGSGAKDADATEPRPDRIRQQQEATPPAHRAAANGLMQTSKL
Assay: NanoBRET screen HiBiT-SSTR5 in HEK293
Assay type: binding
Conditions: SSTR5; tracer 1μM
assay_metric: NanoBRET Fold Response
Answer as a number with no unit attached.

Record excerpt, results attached:
molecule	tested_on	NanoBRET Fold Response
Cc1cc2c(s1)Nc1ccccc1N=C2N1CCN(CCCNC(=O)CCOCCOCCOCCOCCNC(=O)CCc2ccc3n2[B-](F)(F)[N+]2=C(c4ccc[nH]4)C=CC2=C3)CC1 [Olanzapine-a-2-NB590]	SSTR5 (Homo sapiens, UniProt P35346)	1.02
N#CN=C(NCCCOc1cccc(CN2CCCCC2)c1)NCCNC(=O)CCOCCOCCOCCOCCNC(=O)CCc1ccc2n1[B-](F)(F)[N+]1=C(c3ccc[nH]3)C=CC1=C2 [Aminopotentidine-2-NB590]	SSTR5 (Homo sapiens, UniProt P35346)	1.00

Prompt: Tell me its NanoBRET Fold Response given Cc1nc2n(c(=O)c1CCN1CCC(c3noc4cc(F)ccc34)CC1)CCCC2OC(=O)NCCOCCOCCOCCOCCNC(=O)CCc1ccc2n1[B-](F)(F)[N+]1=C(c3ccc[nH]3)C=CC1=C2 (stereo not shown) [Risperidone-2-NB590] as the entry.
Completion: 1.02

Prompt: Quickly give me recorded NanoBRET Fold Response for CCCn1c(=O)c2[nH]c(-c3ccc(OCC(=O)NCCNC(=O)CCOCCNC(=O)c4ccc(CNC(=O)CCc5ccc6n5[B-](F)(F)[N+]5=C(c7ccc[nH]7)C=CC5=C6)cc4)cc3)nc2n(CCC)c1=O [XAC-3-NB590]
Completion: 1.01

###

Target: LGR5 (Homo sapiens, UniProt O75473)
Construct: purchased Promega (in-house HiBiT-GPCR construct library, NanoBRET)
Sequence (O75473 22-907): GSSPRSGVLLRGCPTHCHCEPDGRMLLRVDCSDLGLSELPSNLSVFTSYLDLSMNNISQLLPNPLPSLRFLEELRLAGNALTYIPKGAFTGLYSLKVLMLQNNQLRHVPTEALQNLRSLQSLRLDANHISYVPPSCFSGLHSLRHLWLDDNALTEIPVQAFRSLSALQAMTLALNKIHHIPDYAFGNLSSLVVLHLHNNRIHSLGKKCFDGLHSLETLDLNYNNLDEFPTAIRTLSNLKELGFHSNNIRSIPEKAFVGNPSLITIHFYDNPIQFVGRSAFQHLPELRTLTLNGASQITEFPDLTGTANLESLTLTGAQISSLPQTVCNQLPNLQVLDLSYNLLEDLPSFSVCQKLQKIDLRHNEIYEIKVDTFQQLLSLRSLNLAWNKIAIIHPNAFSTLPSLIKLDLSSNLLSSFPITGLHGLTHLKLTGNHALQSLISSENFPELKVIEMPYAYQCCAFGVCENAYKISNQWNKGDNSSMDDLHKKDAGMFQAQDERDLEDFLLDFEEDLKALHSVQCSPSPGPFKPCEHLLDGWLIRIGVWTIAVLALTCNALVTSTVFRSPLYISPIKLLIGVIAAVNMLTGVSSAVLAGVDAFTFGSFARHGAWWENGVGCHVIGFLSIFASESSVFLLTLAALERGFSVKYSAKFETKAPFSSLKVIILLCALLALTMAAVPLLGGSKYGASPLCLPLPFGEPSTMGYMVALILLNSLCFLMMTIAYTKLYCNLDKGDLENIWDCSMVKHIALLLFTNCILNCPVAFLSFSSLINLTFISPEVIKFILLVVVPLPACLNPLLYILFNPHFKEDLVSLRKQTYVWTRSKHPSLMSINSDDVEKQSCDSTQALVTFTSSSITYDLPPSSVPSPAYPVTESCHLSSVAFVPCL
Assay: NanoBRET screen HiBiT-LGR5 in HEK293
Type: binding
Conditions: LGR5; tracer 0.1μM
assay_metric: NanoBRET Fold Response

compound	tested_on	assay_metric	recorded_measurement
CC(C)N(CC[C@H](c1ccccc1)c1cc(CCNC(=O)CCOCCOCCOCCOCCNC(=O)CCc2ccc3n2[B-](F)(F)[N+]2=C(c4ccc[nH]4)C=CC2=C3)ccc1O)C(C)C [Tolterodine-2-NB590]	LGR5 (Homo sapiens, UniProt O75473)	NanoBRET Fold Response	0.91
Cc1cc2c(s1)Nc1ccccc1N=C2N1CCN(CCCNC(=O)CCOCCOCCOCCOCCNC(=O)CCc2ccc3n2[B-](F)(F)[N+]2=C(c4ccc[nH]4)C=CC2=C3)CC1 [Olanzapine-a-2-NB590]	LGR5 (Homo sapiens, UniProt O75473)	NanoBRET Fold Response	0.91

Prompt: Note NanoBRET Fold Response for the compound shown: CC(C)N(CC[C@H](c1ccccc1)c1cc(CCNC(=O)c2ccc(CNC(=O)CCc3ccc4n3[B-](F)(F)[N+]3=C(c5ccc[nH]5)C=CC3=C4)cc2)ccc1O)C(C)C [Tolterodine-BZ-NB590]
Completion: 0.91

###

This listing pairs compounds with measured NanoBRET Fold Response.
Target: CNR1 (Homo sapiens)
Construct: purchased Promega (in-house HiBiT-GPCR construct library, NanoBRET)
Sequence (P21554 whole entry): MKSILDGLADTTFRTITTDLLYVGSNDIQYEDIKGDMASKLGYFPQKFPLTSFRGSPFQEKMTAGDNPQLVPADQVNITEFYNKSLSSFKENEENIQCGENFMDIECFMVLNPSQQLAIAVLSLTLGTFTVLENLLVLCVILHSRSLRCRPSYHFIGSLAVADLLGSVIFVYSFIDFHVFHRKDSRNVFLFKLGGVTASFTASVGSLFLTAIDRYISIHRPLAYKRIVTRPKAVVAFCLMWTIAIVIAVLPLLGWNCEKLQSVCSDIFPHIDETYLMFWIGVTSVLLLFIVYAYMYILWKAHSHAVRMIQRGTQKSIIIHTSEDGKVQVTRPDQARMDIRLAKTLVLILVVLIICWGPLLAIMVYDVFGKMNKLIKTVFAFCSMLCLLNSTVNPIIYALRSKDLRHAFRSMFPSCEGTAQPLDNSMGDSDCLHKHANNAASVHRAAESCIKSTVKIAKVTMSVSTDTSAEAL
Test: NanoBRET screen HiBiT-CNR1 in HEK293
Type: binding
Conditions: CNR1; tracer 0.1μM
Could you respond with only the numeric value?

The examples below pair each entry with its known result.
compound	tested_on	NanoBRET Fold Response
CC(C)N(CC[C@H](c1ccccc1)c1cc(CCNC(=O)c2ccc(CNC(=O)CCc3ccc4n3[B-](F)(F)[N+]3=C(c5ccc[nH]5)C=CC3=C4)cc2)ccc1O)C(C)C [Tolterodine-BZ-NB590]	CNR1 (Homo sapiens)	1.01
COc1ccccc1N1CCN(CCCCN2C(=O)c3ccc(CNC(=O)CCOCCOCCOCCOCCNC(=O)CCc4ccc5n4[B-](F)(F)[N+]4=C(c6ccc[nH]6)C=CC4=C5)cc3C2=O)CC1 [NAN-190-2-NB590]	CNR1 (Homo sapiens)	1.02
Cc1cc2c(s1)Nc1ccccc1N=C2N1CCN(CCCNC(=O)CCOCCOCCOCCOCCNC(=O)CCc2ccc3n2[B-](F)(F)[N+]2=C(c4ccc[nH]4)C=CC2=C3)CC1 [Olanzapine-a-2-NB590]	CNR1 (Homo sapiens)	0.99
O=C(CCc1ccc2n1[B-](F)(F)[N+]1=C(c3ccc[nH]3)C=CC1=C2)NCCOCCOCCNC(=O)OCCOCCN1CCN(C2=Nc3ccccc3Sc3ccccc32)CC1 [Quetiapine-a-2-NB590]	CNR1 (Homo sapiens)	1.00
Cc1nc2n(c(=O)c1CCN1CCC(c3noc4cc(F)ccc34)CC1)CCCC2OC(=O)NCCOCCOCCOCCOCCNC(=O)CCc1ccc2n1[B-](F)(F)[N+]1=C(c3ccc[nH]3)C=CC1=C2 (stereo not shown) [Risperidone-2-NB590]	CNR1 (Homo sapiens)	1.00

Prompt: Please report NanoBRET Fold Response for the following compound: N#CN=C(NCCCOc1cccc(CN2CCCCC2)c1)NCCNC(=O)CCOCCOCCOCCOCCNC(=O)CCc1ccc2n1[B-](F)(F)[N+]1=C(c3ccc[nH]3)C=CC1=C2 [Aminopotentidine-2-NB590]
Completion: 0.98

Prompt: Recall and state the measured NanoBRET Fold Response for CCCn1c(=O)c2[nH]c(-c3ccc(OCC(=O)NCCNC(=O)CCOCCNC(=O)c4ccc(CNC(=O)CCc5ccc6n5[B-](F)(F)[N+]5=C(c7ccc[nH]7)C=CC5=C6)cc4)cc3)nc2n(CCC)c1=O [XAC-3-NB590] .
Completion: 1.01

Reference for the values: paper PMC8151276
